Value source: ChEMBL document CHEMBL1144721

Some molecules, each annotated with its measured Activity.
Target: ATP-dependent translocase ABCB1 (Homo sapiens)
Sequence (P08183 whole entry): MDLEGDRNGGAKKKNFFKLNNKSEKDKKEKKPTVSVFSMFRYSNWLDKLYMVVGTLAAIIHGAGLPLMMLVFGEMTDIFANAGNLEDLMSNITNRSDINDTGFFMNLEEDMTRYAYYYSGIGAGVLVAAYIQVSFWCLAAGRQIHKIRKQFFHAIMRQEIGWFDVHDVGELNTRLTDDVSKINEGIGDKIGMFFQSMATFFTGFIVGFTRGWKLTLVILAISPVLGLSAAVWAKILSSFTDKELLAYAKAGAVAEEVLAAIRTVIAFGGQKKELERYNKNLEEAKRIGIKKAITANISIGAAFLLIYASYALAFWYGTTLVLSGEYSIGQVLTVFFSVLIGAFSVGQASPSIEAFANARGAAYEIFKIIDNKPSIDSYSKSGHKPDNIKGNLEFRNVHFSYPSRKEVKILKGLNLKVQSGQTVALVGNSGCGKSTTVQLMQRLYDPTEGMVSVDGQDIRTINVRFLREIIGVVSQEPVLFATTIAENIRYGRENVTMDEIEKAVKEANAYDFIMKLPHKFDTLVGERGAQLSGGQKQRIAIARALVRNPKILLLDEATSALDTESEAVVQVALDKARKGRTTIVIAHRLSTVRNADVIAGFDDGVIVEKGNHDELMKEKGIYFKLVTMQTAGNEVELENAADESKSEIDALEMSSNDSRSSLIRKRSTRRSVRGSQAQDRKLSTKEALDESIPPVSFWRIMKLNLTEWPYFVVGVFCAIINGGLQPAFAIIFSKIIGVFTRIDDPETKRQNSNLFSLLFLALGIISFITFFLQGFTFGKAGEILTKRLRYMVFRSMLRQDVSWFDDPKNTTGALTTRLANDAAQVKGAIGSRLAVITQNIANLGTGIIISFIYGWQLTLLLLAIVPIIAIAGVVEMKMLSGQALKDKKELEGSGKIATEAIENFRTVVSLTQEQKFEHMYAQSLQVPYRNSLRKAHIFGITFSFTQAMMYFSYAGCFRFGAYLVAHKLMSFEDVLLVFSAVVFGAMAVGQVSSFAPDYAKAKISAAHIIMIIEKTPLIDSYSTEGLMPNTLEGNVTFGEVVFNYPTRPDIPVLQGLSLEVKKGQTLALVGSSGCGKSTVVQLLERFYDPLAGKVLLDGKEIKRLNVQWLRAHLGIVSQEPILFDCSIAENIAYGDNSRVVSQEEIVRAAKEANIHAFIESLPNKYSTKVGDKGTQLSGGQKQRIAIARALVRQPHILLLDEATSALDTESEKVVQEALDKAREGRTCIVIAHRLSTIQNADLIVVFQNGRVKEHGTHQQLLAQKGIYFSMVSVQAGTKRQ
Assay: Inhibition of P-glycoprotein-mediated multidrug resistance in human 2780AD cells assessed as calcein accumulation at 25 ug/mL relative to control
Format: cell-based
Set-up: scale not given: the % may be the effect or the level left
Conditions: a2780 adr

Molecule: COC(=O)[C@@]1(C)CC[C@]2(C(=O)O[C@@H]3O[C@H](CO)[C@@H](O)[C@H](O)[C@H]3O)CC[C@]3(C)C(=CC(=O)[C@@H]4[C@@]5(C)C[C@H](O)[C@H](O[C@@H]6OC[C@@H](OC7O[C@H](CO)[C@@H](O)[C@H](O)[C@H]7O)[C@H](O)[C@H]6O)[C@@](C)(CO)[C@@H]5CC[C@]43C)[C@@H]2C1 (some centres not stated)
Subject of test: ATP-dependent translocase ABCB1 (Homo sapiens)
Activity (%): 155
--
Molecule: COC(=O)[C@@]1(C)CC[C@]2(C(=O)O[C@@H]3O[C@H](CO)[C@@H](O)[C@H](O)[C@H]3O)CC[C@]3(C)C(=CC[C@@H]4[C@@]5(C)CC[C@H](O[C@@H]6OC[C@@H](O[C@@H]7O[C@H](CO)[C@@H](O)[C@H](O)[C@H]7O)[C@H](O)[C@H]6O[C@@H]6O[C@H](CO)[C@@H](O)[C@H](O)[C@H]6O)[C@@](C)(CO)[C@@H]5CC[C@]43C)[C@@H]2C1
Subject of test: ATP-dependent translocase ABCB1 (Homo sapiens)
Activity (%): 123
--
Molecule: COC(=O)[C@@]1(C)CC[C@]2(C(=O)O)CC[C@]3(C)C(=C[C@@H](OC)[C@@H]4[C@@]5(C)C[C@H](O)[C@H](O[C@@H]6OC[C@@H](O[C@@H]7O[C@H](CO)[C@@H](O)[C@H](O)[C@H]7O)[C@H](O)[C@H]6O)[C@@](C)(CO)[C@@H]5CC[C@]43C)[C@@H]2C1
Subject of test: ATP-dependent translocase ABCB1 (Homo sapiens)
Activity (%): 135
--
Molecule: COC(=O)[C@@]1(C)CC[C@]2(C(=O)O[C@@H]3O[C@H](CO)[C@@H](O)[C@H](O)[C@H]3O)CC[C@]3(C)C(=C[C@@H](O)[C@@H]4[C@@]5(C)C[C@H](O)[C@H](O[C@@H]6OC[C@@H](O[C@@H]7O[C@H](CO)[C@@H](O)[C@H](O)[C@H]7O)[C@H](O)[C@H]6O)[C@@](C)(CO)[C@@H]5CC[C@]43C)[C@@H]2C1
Subject of test: ATP-dependent translocase ABCB1 (Homo sapiens)
Activity (%): 124
--
Molecule: COC(=O)[C@@]1(C)CC[C@]2(C(=O)O[C@@H]3O[C@H](CO)[C@@H](O)[C@H](O)[C@H]3O)CC[C@]3(C)C(=CC[C@@H]4[C@@]5(C)C[C@H](O)[C@H](O[C@@H]6OC[C@@H](O)[C@H](O)[C@H]6O)[C@@](C)(CO)[C@@H]5CC[C@]43C)[C@@H]2C1
Subject of test: ATP-dependent translocase ABCB1 (Homo sapiens)
Activity (%): 143
--
Molecule: COC(=O)[C@@]1(C)CC[C@]2(C(=O)O)CC[C@]3(C)C(=CC[C@@H]4[C@@]5(C)C[C@H](O)[C@H](O[C@@H]6OC[C@@H](O)[C@H](O)[C@H]6O)[C@@](C)(CO)[C@@H]5CC[C@]43C)[C@@H]2C1 [PHYTOLACCOSIDE B]
Subject of test: ATP-dependent translocase ABCB1 (Homo sapiens)
Activity (%): 123
--
Molecule: COC(=O)[C@@]1(C)CC[C@]2(C(=O)O[C@@H]3O[C@H](CO)[C@@H](O)[C@H](O)[C@H]3O)CC[C@]3(C)C(=C[C@@H](OC)[C@@H]4[C@@]5(C)C[C@H](O)[C@H](O[C@@H]6OC[C@@H](O[C@@H]7O[C@H](CO)[C@@H](O)[C@H](O)[C@H]7O)[C@H](O)[C@H]6O)[C@@](C)(CO)[C@@H]5CC[C@]43C)[C@@H]2C1
Subject of test: ATP-dependent translocase ABCB1 (Homo sapiens)
Activity (%): 108
